tested on: Rattus norvegicus; test: Induction of lipid peroxidation in fasted Rattus norvegicus Wistar (rat) assessed as malondialdehyde level per 100 mg gastric mucosal tissue at 60 mg/kg, po measured after 17 hr by thiobarbuteric acid method; assay type: organism-based, Gastric mucosa; set-up: dose 60 mg/kg, route oral; conditions: in vivo
outcome-measure: Activity (nmol)

I. O=C(CCc1nn2c(COc3ccccc3)nnc2s1)c1ccccc1
II. COc1ccc2c(c1)c(CC(=O)O)c(C)n2C(=O)c1ccc(Cl)cc1
// which entry has the larger Activity value, I or II ? Which one? Tell me its label.
II

* * *

We begin with a simple list: items and their reported UI.
system: Rattus norvegicus; experiment: Ulcerogenic activity in fasted Rattus norvegicus Wistar (rat) assessed as ulcer index at 60 mg/kg, po measured after 17 hr; format: toxicity, organism-based; set-up: dose 60 mg/kg, route oral; details: in vivo
The answer should be a number; do not append a unit.

O=C(CCc1nn2c(COc3ccccc3)nnc2s1)c1ccccc1; 1.16
O=C(c1ccccc1)c1ccccc1-c1nn2c(COc3ccccc3)nnc2s1; 1.25
c1ccc(OCc2nnc3sc(Cc4cc5ccccc5[nH]4)nn23)cc1; 0.83
c1ccc(Cc2nnc3sc(-c4ccccc4Oc4ccccc4)nn23)cc1; 0.91

Next up:
Give UI (Rattus norvegicus) of the following compound: COc1ccc2c(c1)c(CC(=O)O)c(C)n2C(=O)c1ccc(Cl)cc1
2.25

* * *

test system: Rattus norvegicus; test: Induction of lipid peroxidation in fasted Rattus norvegicus Wistar (rat) assessed as malondialdehyde level per 100 mg gastric mucosal tissue at 60 mg/kg, po measured after 17 hr by thiobarbuteric acid method; format: organism-based, Gastric mucosa; design: dose 60 mg/kg, route oral; conditions: in vivo
outcome-measure: Activity (nmol)

c1ccc(Cc2nnc3sc(-c4ccccc4Oc4ccccc4)nn23)cc1; 3.26
O=C(c1ccccc1)c1ccccc1-c1nn2c(COc3ccccc3)nnc2s1; 4.42
c1ccc(OCc2nnc3sc(Cc4cc5ccccc5[nH]4)nn23)cc1; 3.15
